Origin of the recorded values: the supplement of paper PMC9170038

System: K4 kissing-loop RNA reporter;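 also: bound reporter read as fluorescence of individual clusters on recovered sequencing chips by microscopy, with normalized cluster intensities fitted with a binding model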
assay.protocol: apparent KD of K4 kissing-loop reporter; higher = weaker reporter binding
condition.context: Eterna round: R107; input ligand: FMN 200 uM
quantity.measured: apparent KD of K4 kissing-loop reporter (nM)
Give bare numbers, in nM.

Solved entries (count: 2):
| biosequence | apparent KD of K4 kissing-loop reporter [nM] |
| --- | --- |
| GCCGUACGCAUGGAUACCAGAUGGCACUAUUUUCUCCCAGAGUGAUGUUCUGGCCUGCCUAUCCCUUGGCAGCCAUGCGUACGGC | 806 |
| AAAAUAAAGCAGUGAUGUUGCAUAUGAGAAGGAGCGCACGAAAGUGCAGGUAGGUCGCUCAGCCAAGUGGACGAAAACGUCCACA [#OpenEnded 9 #K4Early] | 107 |

Turning now to a further sequence:
Lab note: GUACGGCGGGCGGCCGCCACUGGUAUACGAGUGAUGUUCGGAUAUACGUGAUGUAUGGUAAUUAACAGGACCGGGUCAGGGCCGG [whbob_SS_Tryp_B_t23] gave apparent KD of K4 kissing-loop reporter of 115

* * *

Please go through the items and note down their apparent KD of MS2 coat protein.
Test system: MS2 coat protein
assay.protocol: apparent KD of MS2 coat protein, switch OFF state (with FMN for OFF switches, without FMN for ON switches); designed switch direction (-1 OFF switch, 1 ON switch): -1; higher = weaker reporter binding
condition.context: FMN input: 0 or 200 uM; Eterna round: R93 (includes R88 designs)
Answers are plain numbers, in nM.

| biosequence | quantity.measured | obs.value |
| --- | --- | --- |
| AAAAAGUGAGGAUAUACAUGAGAAAAAAAAAUGUAAAAAAAACAUGAGGAUCACCCAUGUAGAAGGCACAAAAA [Ecxl-II] | apparent KD of MS2 coat protein | 83.5 |

For each listed entry, give its apparent KD of MS2 coat protein.
1. AAAAAACAUGAGGAUCACCCAUGUAAGGAUAUGUAAAAUAAAAGAAAAAUAAAGAAAAGCAGAAGGUACAAGAA [JL wbt mod 18]
2. AACAAGUCAGGAUAUGUUAAAGGUUACGAAAGGGAUAAAGGGCAGAAGGGACAUGAGGAUCACCCAUGUAAUAA [And All that Jazx]
3. AUAAAACAUGAGGAUCACCCAUGUGAGGAUAUGCGAAACAAAGAAACAAACAAACAAAGCAGAAGGCACAAUAA [Amethyst 7]
4. AAGAACGGAGGAUAUACAUGAGGAUCACCCAUGUAAAAGAAAGAGGGAAAAGAGAAAAGUAGAAGGCCGAAGAA [Haaibre Alexander IV]

[23.4, 38.2, 39.2, 60.3]

* * *

System: MS2 coat protein
assay.protocol: apparent KD of MS2 coat protein; designed switch direction (-1 OFF switch, 1 ON switch): -1; higher = weaker reporter binding
condition.context: input ligand: FMN 200 uM
quantity.measured: apparent KD of MS2 coat protein (nM)
Answers are plain numbers, in nM.

| biosequence | unit.abbreviation | obs.value |
| --- | --- | --- |
| AAUAAUGAGAAGGAUAUCACUAGCGAUAGCUAGUGAGAAGGUCUCACAUGAGGAUCACCCAUGUGUUCCAAUAA [Mod1 Ex6/6-A4 by Brourd] (Eterna round: R97, puzzle: Exclusion 6) | nM | 417 |
| CUGCUCCGUGUAGGAUAUCCGCGCAACCAAUGCGGAGAAGGACAUGAGGAUCACCCAUGUAUGUUAUUAUCACGUGAAGCGUCC [Design 26] (Eterna round: R96, puzzle: Exclusion NG 1) | nM | 24.8 |
| AGGAGACAUGAGGAUCACCCAUGUGAGGAUAUCGAUGUUACGUGGAUAACCACUUCGUUGAGAAGGCACGCUUC [Eternabot (L2) Solution 55] (Eterna round: R97, puzzle: Exclusion 1) | nM | 43 |

For each listed entry, give its apparent KD of MS2 coat protein.
1. CGCGUUUAUGUAGGAUAUGCCUGGCGUGCCUUAGCAGAAGGACAUGAGGAUCACCCAUGUAACAUGAGGCUCACCCAUGUCGCA (Eterna round: R96, puzzle: Exclusion NG 1)
2. GGUACCUCUGUUAGGAUAUUGUUAGUGUGAAGCGACGAGAAGGAACAUGAGGAUCACCCAUGUUGCAUCGUAAA [Eternabot (L2) Solution 54] (Eterna round: R97, puzzle: Brourd's mod of Exclusion 4)
3. GUUGGUUGAGAGGAUAUUGUACGCGAUGAGUGUCGAGAAGGUUCAACAUGAGGAUCACCCAUGUGGCUGAGUAA [Eternabot (L1) Solution 40] (Eterna round: R97, puzzle: Exclusion 6)
4. AACAGUACAGGAUAUACAUGAGGAUCACCCAUGUGAGAAUUAAGUGGAAAACCACAAAGUAGAAGGGUACUGGA [Mat - Exclusion 3 - JL mod - D3] (Eterna round: R96, puzzle: Exclusion 3)
5. UGUUGUUACGCAGGAUAUGAGGAUCACCCAUAUAAGGAUAUCGAAAGAGAAGUUCUGAGGAUCACCCAGAAGGGCGGGUUAACA [pwkr exNG2 2xF5 2xFMN.31] (Eterna round: R96, puzzle: Exclusion NG 2)

1. 201
2. 152
3. 442
4. 209
5. 193

* * *

Test system: MS2 coat protein
assay.protocol: apparent KD of MS2 coat protein; designed switch direction (-1 OFF switch, 1 ON switch): -1; higher = weaker reporter binding
condition.context: Eterna round: R95; input ligand: microRNA oligo, concentration not stated
quantity.measured: apparent KD of MS2 coat protein (nM)
Numbers only, in nM.

Solved entries (count: 3):
| biosequence | apparent KD of MS2 coat protein, nM |
| --- | --- |
| AAGAAACAUGAGGAUCACCCAUGUGAGGAUAUGUAAAAGAAAAUAAAAUAAAUAAGAAACAGAAGGCACAAAGG [Mat - Mod of Hog D19] (puzzle: Exclusion 1) | 39.2 |
| GGUACUAACACGAAAGUGUUAGUACUAUAAGUUUGUGUUACAUGAGGAUCACCCAUGUCCUCAUAAGCUCGUCUUGU [JL-sv3-2.20 mat747 mod] (puzzle: Sensor v3, turn-off variant 2) | 59.6 |
| CAUACACAUGAGGAUCACCCAUGUGAGGAUAUGCGUACGUAAUCCGUAGGAGACGUGCGCAGAAGGCGCGAGGU [Mat - Mod of JL D94] (puzzle: Exclusion 1) | 38.7 |

For each listed entry, give its apparent KD of MS2 coat protein.
1. CAGUACUGAGGAUAUACAUGAGGAUCACCCAUGUGUGCCAGCUAGGAAACUAGCAAAAGUAGAAGGCAGUACUG [salish99_ex3_r3_082] (puzzle: Exclusion 3)
2. UAUUAGCAAGCUAGAUCCCACAUGAGGAUCACCCAUGUGCUCGUCUUAUAAGGUACUGUGACGAAAGUCACGGUACC [Sensor 3, v1 - 96] (puzzle: Sensor v3, turn-off variant 1)

1. 12
2. 798

For each listed entry, give its apparent KD of MS2 coat protein.
1. UAUUAGCAAGCGAGAUCCCACAUGAGGAUCACCCAUGUGCUCGUCUUAUAAGGUACUGUGACGAAAGUCACGGUACC [Sensor 3, v1 - 91] (puzzle: Sensor v3, turn-off variant 1)
2. AGAGAGUCAGGAUAUCGAAGGUAGAGAAGAGGAGAGUGGUACGAGAAGGGACAUGAGGAUCACCCAUGUAGGUG [JR_Exclusion4)Sub012] (puzzle: Exclusion 4)

1. 441
2. 245

* * *

Please go through the items and note down their apparent KD of MS2 coat protein.
Test system: MS2 coat protein
assay.protocol: apparent KD of MS2 coat protein; higher = weaker reporter binding
condition.context: Eterna round: R107; input ligand: theophylline 20 uM
Numbers only, in µM.

For each listed entry, give its apparent KD of MS2 coat protein.
1. AAACGUUGCUCAGAUACCAGACAUGAGGAUCACCCAUGUACCAAGGUAAAGAAAUAACGUGUCCCUUGGCAGCUGAGCAACGAAA [MAT - Exclusion Theophlline B - Mod of Eli - D11]
2. CUCCCGUGAGCGGCCGCCACUGGAGGCCUCGCGCGACAUGAGGAUCACCCAUGUUGGCCCGGCCUCAGGACCGGGUUCGCGUGAG [Same State - Tryptophan B Attempt #6 (HarryS)]
3. CUACAUGUAGUUAAACCGGUCAACAAUAAUCGAGGACCGGUACGGCCGCCACUCGAUGUGUUAUACACAUGAGGAUCACCCAUGU [Tryptophan A 15]
4. AGACAUGAGGAUCACCCAUGUAGUACGGAUACCAGAUCCAGAUGCGUCCCUUGGCAGCUGUGGUACAGCGUUACAUCGCUCGUAG [Exclusion - Theophylline A (Freestyle 23)]
5. UUUGAAAUAACAGAUACCAGCGUGUUAUAAAACAUGAGGAUCACCCAUGUAGUGAUCAAGCGCCCUUGGCAGCUGGUAUUUUAGG [7.F]
6. GCCAGUCAUAGCAGGGCAAAUAUACUCGAAGGAGCGUCAUAGUAGGCAGGUAGGUCGCGAGACAUGAGGAUCACCCAUGUAGAGA [fffmullin]

1. 0.0138
2. 0.0174
3. 0.0272
4. 0.0299
5. 0.208
6. 0.0598

For each listed entry, give its apparent KD of MS2 coat protein.
1. UUAUAUUAUCGAAGGAGCGUCACAUGAGGAUCACCCAUGUACAUGAGGAUCACCCAUGUGUGGCAGGUAGGUCGCGAUAUAUAAC [Exclusion Arginine B GF9]
2. GGACCAUGGCGCGAUACCAGCUUGAGUGUACUGGCCAGGUACAUGAGGAUCACCCAUGUAAGCCCUUGGCAGCGCGCCAUGGUCC [#1 Exclusion - Theophylline B Attempt #24 (HarryS)]

1: 0.25; 2: 0.0161
